Reported nuclei count values for the following molecules.
assay: endothelial E-selectin expression blockers – imaging, HUVEC, immunofluorescence, MLSMR starter and 10KST1 sets, primary screen (AID 487); conditions: HUVEC TNFalpha-induced E-selectin immunofluorescence imaging, at 2 µM; measured here: cell number, toxicity;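 further: 100% = median nuclei count of all wells on the same plate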
metric: nuclei count (%)

| molecule | metric | result-unit | value-observed |
| --- | --- | --- | --- |
| COc1ccc(C(=O)c2ccc(OC)c(N)c2)cc1N | nuclei count | % | 111 |
| CCn1c(=N)n(CC(O)c2ccco2)c2ccccc21 (configuration not stated) | nuclei count | % | 110 |
| COc1ccccc1C(=O)N1CCN(C(=O)c2ccncc2)CC1 | nuclei count | % | 76.2 |
| CCOc1ccc(NC(=O)CSc2nc3cccnc3n2CC)cc1 | nuclei count | % | 102 |
| CCOC(=O)N1CCC(N(C(=O)Nc2cccc(OC)c2)C(C)CC)CC1 (configuration not stated) | nuclei count | % | 98.9 |
| CSCCC(NC(=O)c1occc1C)C(=O)O (configuration not stated) | nuclei count | % | 149 |
| O=c1c(CN2CCN(Cc3ccccc3)CC2)coc2ccc(Cl)cc12 | nuclei count | % | 125 |
| Cc1nc2ccccc2c2oc(C(=O)N3CCN(C(=O)c4ccco4)CC3)cc12 | nuclei count | % | 98.3 |
| O=C(CN(Cc1ccc2c(c1)OCO2)C(=O)CNS(=O)(=O)c1ccccc1)NCc1ccco1 | nuclei count | % | 98.7 |
| CCOC(=O)CSc1nnc(-c2ccccc2OC)o1 | nuclei count | % | 105 |
| COc1ccc(NC(=O)COc2ccccc2)c(OC)c1 | nuclei count | % | 108 |
| CCOc1ccc(N(CC)C(=O)COc2cc(=O)n(C)c3ccccc23)cc1 | nuclei count | % | 118 |

---

experiment: inhibitors of TNFa-induced NFkB p65 translocation, primary screen, imaging, HUVEC, MLSMR starter and 10KST1 sets (AID 438); conditions: HUVEC TNFa-induced p65 nuclear translocation; measured here: nuclei count (cytotoxicity indicator), at 2.08 µM;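 further: compound added about 3h40 before a 20 min TNFalpha stimulation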
Reported cell count values for the following molecules.
metric: cell count

| molecule | value-observed |
| --- | --- |
| COc1ccc(-c2cc3ccc(OCc4nn[nH]n4)cc3oc2=O)cc1 | 399 |
| COc1ccc(NC(=O)c2cc(C3CC3)on2)c(OC)c1 | 603 |
| CCOc1ccc(-c2nc(C#N)c(N3CCCCCC3)o2)cc1 | 759 |
| O=C(Nc1sc2c(c1C(=O)NCc1ccco1)CCCC2)c1ccc2c(c1)OCO2 | 563 |
| O=C1CC(C(=O)Nc2ccc(Br)cc2)C2(CCCC2)O1 (stereo not drawn) | 630 |
| CCOc1ccc(-c2nc(C#N)c(NCc3ccc4c(c3)OCO4)o2)cc1 | 801 |
| C#CCNc1c(C)c(C)nc2ncnn12 | 306 |
| COc1nc(C)ccc1-c1noc(-c2ccncc2)n1 | 255 |
| Cc1ccc(-c2cc(C(F)(F)F)n3nc(C(=O)N4CCCC4)cc3n2)cc1 | 336 |
| O=C(OC1CCOC1=O)c1ccc(S(=O)(=O)N2CCCCCC2)cc1 (stereo not drawn) | 466 |
| COc1ccc2c(c1)C(C)=CC(C)(C)N2C(=O)CSc1nnc(-c2ccc(C)cc2)o1 | 362 |
| COc1cccc(OC)c1OCCCSc1nc(C)cc(=O)[nH]1 | 402 |
| CCOC(=O)C(C(C)=O)c1nc(C)nc2c1nnn2Cc1ccccc1Cl (stereo not drawn) | 479 |
| CC1=C(C(=O)NCc2ccco2)C2(CCC(C)CC2)OC1=O (stereo not drawn) | 438 |
| O=S(=O)(c1ccc(Br)s1)N1CCN(c2ccccc2)CC1 | 660 |
| Cc1ccc(-n2nnnc2SCC(=O)c2cc(C)n(CC3CCCO3)c2C)cc1 (stereo not drawn) | 452 |
| CCOCCCNC(=O)C1CCC(CNS(=O)(=O)c2cccc3nsnc23)CC1 (stereo not drawn) | 808 |
| O=C(COC(=O)C12CC3CC(CC(O)(C3)C1)C2)N1CCN(S(=O)(=O)c2ccc(Cl)cc2)CC1 | 371 |
| S=c1[nH]nc(Cc2ccccc2)n1-c1ccccc1 | 664 |
| Cc1cc(C)c(NC(=O)C2CSCCS2)c(C)c1 (stereo not drawn) | 484 |
| CCN1CCN(C(c2ccc(F)cc2)c2nnnn2Cc2cccs2)CC1 (stereo not drawn) | 605 |
| COc1ccc(Oc2c(C)oc3cc(OC(=O)N4CCOCC4)ccc3c2=O)cc1 | 770 |
| CCN=C1SC(CC(=O)Nc2ccccc2OCC)C(=O)N1CC (stereo not drawn) | 613 |
